Test: Apparent oral clearance in healthy human at 900 mg, po administered as a single dose measured on day 5 post compound dose by HPLC
Format: ADME, organism-based
Settings: in vivo
Result Type: CL/F (mL/min)
// note: answer is a bare numeric in mL/min

[in] Record request: CL/F value, item CO[C@H]1/C=C/O[C@@]2(C)Oc3c(C)c(O)c4c(O)c(c(/C=N/N5CCN(C6CCCC6)CC5)c(O)c4c3C2=O)NC(=O)/C(C)=C\C=C\[C@H](C)[C@H](O)[C@@H](C)[C@@H](O)[C@@H](C)[C@H](OC(C)=O)[C@@H]1C
[out] 26.5
